measurementProtocol: Compound plasma exposure in mouse (CD-1), daily oral dosing, same table as the cyno DRF study
Type: in vivo
measurementConditions: CD-1, mouse, 30 mg/kg, 30 mg/kg PO, 1 day of dosing
resultType: AUC (µM·h)
Numbers only here, please. The scale is µM·h.

Please look up its AUC: CN1CCN([C@H]2CCCN(c3cnc(C(N)=O)c(Nc4ccc(C5CCN(CC6CCN(c7ccc(C(=O)NC8CCC(=O)NC8=O)nc7)CC6)CC5)cc4)n3)C2)C1=O (stereo partly drawn) 23.2

Please look up its AUC: CN1CCN([C@@H]2CCCN(c3cnc(C(N)=O)c(Nc4ccc(C5CCN(C[C@H]6CCN(c7ccc8c(c7)C(=O)N(C7CCC(=O)NC7=O)C8=O)C6)CC5)cc4)n3)C2)C1=O (stereo partly drawn) 2.32

Please look up its AUC: NC(=O)c1ncc(N2CCCCC2)nc1Nc1ccc(C2CCN(C[C@@H]3CCN(c4ccc5c(c4)C(=O)N(C4CCC(=O)NC4=O)C5=O)C3)CC2)cc1 (stereo partly drawn) 12.2

###

What Cmax was measured for each of the following?
measurementProtocol: Compound plasma exposure in mouse (CD-1), daily oral dosing, same table as the cyno DRF study
Format: in vivo
measurementConditions: CD-1, mouse, 30 mg/kg, 30 mg/kg PO, 14 days of dosing
Numbers only here, please. The scale is nM.

Please look up its Cmax: CN1CCN([C@H]2CCCN(c3cnc(C(N)=O)c(Nc4ccc(C5CCN(CC6CCN(c7ccc(C(=O)NC8CCC(=O)NC8=O)nc7)CC6)CC5)cc4)n3)C2)C1=O (stereo partly drawn) 1700

Please look up its Cmax: CN1CCN([C@@H]2CCCN(c3cnc(C(N)=O)c(Nc4ccc(C5CCN(C[C@H]6CCN(c7ccc8c(c7)C(=O)N(C7CCC(=O)NC7=O)C8=O)C6)CC5)cc4)n3)C2)C1=O (stereo partly drawn) 250

Please look up its Cmax: NC(=O)c1ncc(N2CCCCC2)nc1Nc1ccc(C2CCN(C[C@@H]3CCN(c4ccc5c(c4)C(=O)N(C4CCC(=O)NC4=O)C5=O)C3)CC2)cc1 (stereo partly drawn) 1640

###

What AUC was measured for each of the following?
measurementProtocol: Compound plasma exposure in cyno DRF study
Assay type: in vivo
measurementConditions: cynomolgus monkey, po, 100 mg/kg, 100 mg/kg PO, 1 day of dosing
Numbers only here, please. The scale is µM·h.

Please look up its AUC: CN1CCN([C@@H]2CCCN(c3cnc(C(N)=O)c(Nc4ccc(C5CCN(C[C@H]6CCN(c7ccc8c(c7)C(=O)N(C7CCC(=O)NC7=O)C8=O)C6)CC5)cc4)n3)C2)C1=O (stereo partly drawn) 0.294

Please look up its AUC: CN1CCN([C@H]2CCCN(c3cnc(C(N)=O)c(Nc4ccc(C5CCN(CC6CCN(c7ccc(C(=O)NC8CCC(=O)NC8=O)nc7)CC6)CC5)cc4)n3)C2)C1=O (stereo partly drawn) 1.4

Please look up its AUC: NC(=O)c1ncc(N2CCCCC2)nc1Nc1ccc(C2CCN(C[C@@H]3CCN(c4ccc5c(c4)C(=O)N(C4CCC(=O)NC4=O)C5=O)C3)CC2)cc1 (stereo partly drawn) 0.714

###

measurementProtocol: PK data for BTK CTMs (in vivo plasma concentrations)
measurementConditions: Monkey cynomolgus, 0.75 mg/kg IV
resultType: AUC
Report the figure along with its unit, number first.

Please look up its AUC: CN1CCN([C@H]2CCCN(c3cnc(C(N)=O)c(Nc4ccc(C5CCN(CC6CCN(c7ccc(C(=O)NC8CCC(=O)NC8=O)nc7)CC6)CC5)cc4)n3)C2)C1=O (stereo partly shown) 170 nM·h
